Source: patent US5436229A

- TARGET_ENTITY: factor Xa (Homo sapiens)
- Construct: Human factors X, Xa, IXa, XIa, and XIIa are purchased from Enzyme Research Laboratories; purchased Enzyme Research Laboratories, South Bend, Ind
- Sequence (P00742 235-488 limits assumed): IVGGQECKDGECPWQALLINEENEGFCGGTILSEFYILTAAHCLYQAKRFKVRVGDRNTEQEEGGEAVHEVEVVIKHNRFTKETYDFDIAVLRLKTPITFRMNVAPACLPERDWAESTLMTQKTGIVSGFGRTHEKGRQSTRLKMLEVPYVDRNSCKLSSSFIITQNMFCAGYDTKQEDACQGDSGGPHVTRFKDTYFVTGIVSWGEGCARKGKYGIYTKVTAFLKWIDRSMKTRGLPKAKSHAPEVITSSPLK
- Sequence (P00742 41-179 partner limits assumed): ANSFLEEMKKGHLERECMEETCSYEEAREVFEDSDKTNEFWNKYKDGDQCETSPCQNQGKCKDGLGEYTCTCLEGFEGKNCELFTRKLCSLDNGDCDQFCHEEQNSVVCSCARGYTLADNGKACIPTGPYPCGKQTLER
- ASSAY_METHOD_TEXT: Serine protease inhibition (Kass), factor Xa
- Assay type: biochemical
Entries and their Kass Xa
MEASURED_PROPERTY: Kass Xa (L/mol × 10^6)

COMPOUND	TARGET_ENTITY	VALUE_UNITS	OBSERVED_RESULT
CCS(=O)(=O)N[C@@H](C(=O)N1CCC[C@H]1C(=O)N[C@H](C=O)CCCNC(=N)N)C1CCCCC1.Cl [Example 66]	factor Xa (Homo sapiens)	L/mol × 10^6	24
CCS(=O)(=O)NC(C)(C(=O)N1CCC[C@H]1C(=O)N[C@H](C=O)CCCNC(=N)N)c1ccccc1.Cl (some centres unmarked) [Example 41]	factor Xa (Homo sapiens)	L/mol × 10^6	0.49
CCOC(=O)N[C@H](Cc1ccccc1)C(=O)N1CCC[C@@]1(C)C(=O)N[C@H](C=O)CCCNC(=N)N.Cl [Example 27]	factor Xa (Homo sapiens)	L/mol × 10^6	0.044
CC(=O)N[C@H](Cc1ccccc1)C(=O)N1CCC[C@H]1C(=O)N[C@H](C=O)CCCNC(=N)N.Cl [Example 67]	factor Xa (Homo sapiens)	L/mol × 10^6	0.066
C[C@@]1(C(=O)N[C@H](C=O)CCCNC(=N)N)CCCN1C(=O)[C@@H](Cc1ccccc1)NS(C)(=O)=O.Cl [Example 43]	factor Xa (Homo sapiens)	L/mol × 10^6	0.23
CCCC(Cc1ccccc1)(NC(=O)OCC)C(=O)N1CCC[C@H]1C(=O)N[C@H](C=O)CCCNC(=N)N.Cl (some centres unmarked) [Example 38]	factor Xa (Homo sapiens)	L/mol × 10^6	0.077
CCOC(=O)N[C@H](CC1CCCCC1)C(=O)N1CCC[C@H]1C(=O)N[C@H](C=O)CCCNC(=N)N.Cl [Example 78]	factor Xa (Homo sapiens)	L/mol × 10^6	8.1
CCCCS(=O)(=O)N[C@H](Cc1ccccc1)C(=O)N1CCC[C@H]1C(=O)N[C@H](C=O)CCCNC(=N)N.Cl [Example 54]	factor Xa (Homo sapiens)	L/mol × 10^6	8.3
Cl.N=C(N)NCCC[C@@H](C=O)NC(=O)[C@@H]1CCCN1C(=O)[C@@H](Cc1ccccc1)NCC1CCCCC1 [Example 74]	factor Xa (Homo sapiens)	L/mol × 10^6	0.11
Cl.N=C(N)NCCC[C@@H](C=O)NC(=O)[C@@H]1CCCN1C(=O)[C@@H](Cc1ccccc1)NC(=O)c1cccnc1 [Example 47]	factor Xa (Homo sapiens)	L/mol × 10^6	0.080
CCOC(=O)N[C@@H](Cc1ccccc1)C(=O)N1CCC[C@@]1(C)C(=O)N[C@H](C=O)CCCNC(=N)N.Cl [Example 29]	factor Xa (Homo sapiens)	L/mol × 10^6	0.025
Cl.N=C(N)NCCC[C@@H](C=O)NC(=O)[C@@H]1CCCN1C(=O)[C@@H](Cc1ccccc1)NS(=O)(=O)c1ccc(C(=O)O)cc1 [Example 62]	factor Xa (Homo sapiens)	L/mol × 10^6	2.0
CCOC(=O)N[C@](CC)(Cc1ccccc1)C(=O)N1CCC[C@H]1C(=O)N[C@H](C=O)CCCNC(=N)N.Cl [Example 35]	factor Xa (Homo sapiens)	L/mol × 10^6	0.036
CN(C)S(=O)(=O)N[C@H](Cc1ccccc1)C(=O)N1CCC[C@H]1C(=O)N[C@H](C=O)CCCNC(=N)N.Cl [Example 56]	factor Xa (Homo sapiens)	L/mol × 10^6	3.9
